# System under test: recombinant HA, subtype H3 (A/Wyoming/3/2003(H3N2)) (influenza A virus A/Wyoming/3/2003 …)
# Protocol text: ELISA, coated HA, IgG 5 µg/ml
Test readout: OD 492 nm (OD 492 nm)
Numbers only; they are read as OD 492 nm.

In: Entry under review: CR6329 (antibody, V domains shown) VH: EVQLVQSGAEVKKPGSSVKVSCKASGGIFRSNSISWVRQAPGQGLEWMGGIFALFGTTDYAQKFQGRVTITADESSTTVYLELSSLTSEDTAVYYCARGSGYTTRNYFDYWGQGTLVTVSS VL: EIVLTQSPGTLSLSPGERATLSCRASQSVSSNYLGWYQQKPGQAPRLLIYGASSRASGIPDRFSGGGSGTDFTLTISRLEPEDFAVYYCQQYGSSPLTFGGGTKVEIKR . Reported OD 492 nm?
Out: 0.08

In: Entry under review: CR6331 (antibody, V domains shown) VH: EVQLVESGAEVKKPGSSVKVSCKASGGTFSSYAISWVRQAPGQGLEWMGGIIGMFGTANYAQKFQGRVTITADEFTSTAYMELSSLRSEDTAVYYCARGNYYYESSLDYWGQGTLVTVSS VL: QSVVTQPPSVSVAPGQTARITCGGNNIGSKSVHWYQQKPGQAPVLVVYDDSDRPSGIPERFSGSNSGNTATLTISRVEAGDEADYYCQVWDSSSDHYVFGTGTKVTVLG . Reported OD 492 nm?
Out: 0.06

In: Entry under review: CR6261 (antibody, V domains shown) VH: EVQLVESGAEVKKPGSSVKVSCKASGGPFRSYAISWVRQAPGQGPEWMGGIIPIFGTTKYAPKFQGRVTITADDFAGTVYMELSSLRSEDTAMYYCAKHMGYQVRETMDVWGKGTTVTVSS VL: QSVLTQPPSVSAAPGQKVTISCSGSSSNIGNDYVSWYQQLPGTAPKLLIYDNNKRPSGIPDRFSGSKSGTSATLGITGLQTGDEANYYCATWDRRPTAYVVFGGGTKLTVLG . Reported OD 492 nm?
Out: 0.07

In: Entry under review: CR6314 (antibody, V domains shown) VH: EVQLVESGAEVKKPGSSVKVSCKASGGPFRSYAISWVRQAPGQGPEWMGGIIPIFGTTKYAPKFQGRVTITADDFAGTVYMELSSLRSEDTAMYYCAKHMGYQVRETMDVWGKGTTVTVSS VL: SYVLTQPPSASGTPGQRVTISCSGSSSNIGSNYVYWYQQLPGTAPKLLIYRDGQRPSGVPDRFSGSKSGTSASLAISGLRSDDEADYYCATWDDNLSGPVFGGGTKLTVLG . Reported OD 492 nm?
Out: 0.07

In: Entry under review: CR6257 (antibody, V domains shown) VH: QVQLVQSGAEVKKPGSSVKVSCKASGGPFRSYAISWVRQAPGQGPEWMGGIIPIFGTTKYAPKFQGRVTITADDFAGTVYMELSSLRSEDTAMYYCAKHMGYQVRETMDVWGKGTTVTVSS VL: QSALTQPAAVSGSPGQSITISCTGTSSDVGGYNYVSWYQQHPGKAPKLMIYEVSNRPSGVSNRFSGSKSGNTASLTISGLQAEDEADYYCSSYTSSSTYVFGTGTKVTVLG . Reported OD 492 nm?
Out: 0.08

In: Entry under review: CR6336 (antibody, V domains shown) VH: QMQLVQSGAEVKKPGSSVKVSCKASGGTFSSYAISWVRQAPGQGLEWMGGIFGMFGTANYAQKFQGRVTITADEFTSAAYMELSSLGSEDTAMYYCARSSGYYPQYFQDWGQGTLVTVSS VL: EIVMTQSPGTLSLSPGQRATLSCRASQSVSSSYLAWYQQKPGQAPRLLMYGASSRATGIPDRFSGSGSGTDFTLTISRLEPEDFAVYYCQQYGSSSLTFGGGTKLEIKR . Reported OD 492 nm?
Out: 0.1

In: Entry under review: CR6327 (antibody, V domains shown) VH: EVQLVETGAEVKKPGSSVKVSCKASGGTFRTHAISWVRQAPGQGLEWMGGIIAIFGTANYAQKFQGRITITADESTSTAYMELSSLRSEDTAVYFCARGSGYHISTPFDNWGQGTLVTVSS VL: SYVLTQPPSVSVAPGQTARITCGGNNIGSKGVHWYQQKPGQAPVLVVYDDSDRPSGIPERFSGSNSGNTATLTISRVEAGDEADYYCQVWDSSSDHVVFGGGTKLTVLG . Reported OD 492 nm?
Out: 0.08

In: Entry under review: CR6262 (antibody, V domains shown) VH: QVQLQQSGAEVKKPGSSVKVSCKVSGVIFSGSAISWVRQAPGQGLEWMGGISPLFGTTNYAQKFQGRVTITADQSTNTTYMEVNSLRYEDTAVYFCARGPKYYSEYMDVWGKGTTVTVSS VL: DIQMTQSPSSLSASVGDRVTITCRASQGISSYLAWYQQKPGKVPTLLIYDASTLRSGVPSRFSGSGSATDFTLTISSLQPEDVATYYCQRYNSAPPITFGQGTRLEIKR . Reported OD 492 nm?
Out: 0.09

In: Entry under review: CR6307 (antibody, V domains shown) VH: QVQLVQSGGGLVKPGGSLRLSCAASGFTFSSYSMNWVRQAPGKGLEWVSSISSSSSYIYYVDSVKGRFTISRDNAKNSLYLQMNSLRAEDTAVYYCARGGGSYGAYEGFDYWGQGTLVTVSS VL: EIVLTQSPGTLSLSPGERATLSCRASQRVSSYLAWYQQKPGQAPRLLIYGASTRAAGIPDRFSGSGSGTDFTLTISRLEPEDSAVYYCQQYGRTPLTFGGGTKVEIKR . Reported OD 492 nm?
Out: 0.11

In: Entry under review: CR6334 (antibody, V domains shown) VH: EVQLVETGAEVKKPGSSVKVPCKSSGSPFRSNAVSWVRQAPGQGLEWVGGILGVFGSPSYAQKFQGRVTITADESTNTVHMELRGLRSEDTAVYYCARGPTYYYSYMDVWGKGTTVTVSS VL: SYVLTQPPSESVAPGQTARITCGGNNIGRNSVHWYQQKPGQAPVLVVYDDSDRPSGIPERFSGSKSGNTATLIISRVEVGDEADYYCQVWHSSSDHYVFGTGTKVTVLG . Reported OD 492 nm?
Out: 0.07

All values here come from patent US20090311265A1.
